- Tested on: Bacteroides caccae
- assayDetails: growth AUC relative to DMSO control (median of replicates) (fraction); higher = more growth (less inhibition), active = hit call of the paper
- testSettings: 20 µM; 24 h
readoutName: growth AUC
Enter a number only.

Query string: Return reported growth AUC; argument: Cc1c(F)c(F)c(COC(=O)[C@@H]2[C@H](/C=C(\Cl)C(F)(F)F)C2(C)C)c(F)c1F (mixture of isomers)
Result string: 0.943

Query string: Can you check CC1(C(=O)Nc2ccc(O)c(Cl)c2Cl)CCCCC1 next?
Result string: 0.986

Query string: Can you check CCOP(=S)(NC(C)CC)Oc1cc(C)ccc1[N+](=O)[O-] (configuration not stated) next?
Result string: 0.947

Query string: Can you check CNC(=O)Oc1ccccc1C(C)C next?
Result string: 1.01

Query string: Can you check COC(=O)c1sccc1S(=O)(=O)NC(=O)Nc1nc(C)nc(OC)n1 next?
Result string: 0.932

Query string: Can you check CCOP(=O)(SC(C)CC)SC(C)CC (configuration not stated) next?
Result string: 1.01

Query string: Can you check COP(=O)(OC)OC1=C(Cl)C2C=CCC12 (configuration not stated) next?
Result string: 0.928

Reference for the values: the supplement of paper PMC12669032
